Sourced from the Deep4Chem optical property database

# testDetails: solvent given as SMILES
# measurementSetup: in ClC(Cl)Cl
Parameter: emission maximum. Scope: all listed entries.
The figure you give is taken to be in nm; do not add the unit.

Asked: Query (compound): CCCCCCCN1C(=CC2=C([O-])C(=Cc3sc4ccccc4[n+]3CCCCCCC)C2=C(C#N)C#N)Sc2ccccc21 ; field requested: emission maximum
Given back: 724

Now look at this one.
Asked: Query (compound): CCC1(CC)c2ccccc2-c2ccc(C#Cc3ccc4ccc5cccc6ccc3c4c56)cc21 ; field requested: emission maximum
Given back: 413

----------
# testDetails: solvent given as SMILES
# measurementSetup: in ClCCl
metricName: emission maximum (nm)
The figure you give is taken to be in nm; do not add the unit.

Asked: Query (molecule): CCCCCCCCCCCCOc1cc(/C=C/c2ccc3c(c2)C(CC)(CC)c2cc(N4c5ccccc5Sc5ccccc54)ccc2-3)c(OCCCCCCCCCCCC)cc1/C=C/c1ccc2c(c1)C(CC)(CC)c1cc(N3c4ccccc4Sc4ccccc43)ccc1-2 ; field requested: emission maximum
Given back: 477

Asked: What about this molecule? CCCCCCOc1cc(/C=C/c2cc(OCCCCCC)c(/C=C/c3cc(OCCCCCC)c(/C=C4\C(=O)c5ccccc5C4=C(C#N)C#N)cc3OCCCCCC)cc2OCCCCCC)c(OCCCCCC)cc1/C=C1\C(=O)c2ccccc2C1=C(C#N)C#N
Given back: 765

Asked: What about this molecule? Cc1cc(C(F)(F)F)nc2c1ccc1nc(-c3ccc(F)c(F)c3)cn12
Given back: 451

Asked: What about this molecule? CC(C)(C)NC(=O)c1ccc(-c2ccc(N3c4ccccc4Oc4ccccc43)cc2)c2ccc3c4ccc(F)cc4c4cc(F)ccc4c3c12
Given back: 573

Asked: What about this molecule? C(=C\c1ccc(/C=C/c2ccc(N(c3ccccc3)c3ccccc3)cc2)cc1)/c1ccc(/C=C/c2ccc(N(c3ccccc3)c3ccccc3)cc2)cc1
Given back: 510

Further cases:
Asked: Query (molecule): CCN(CC)c1ccc2c(c1)oc(=O)c1c(=O)oc3cc(C#Cc4ccc(C#N)cc4)ccc3c12 ; field requested: emission maximum
Given back: 572

Asked: What about this molecule? CC(C)(C)c1ccc(-c2c3ccccc3c3n2[B-](F)(F)[N+]2=Cc4c5ccccc5c(-c5ccc(C(C)(C)C)cc5)n4[B-](F)(F)[N+]2=C3)cc1
Given back: 608

----------
# testDetails: solvent given as SMILES
# measurementSetup: in Cc1ccccc1
# yes = emission maximum below 500 nm (exclusive); no = emission maximum at/above 500 nm

Worked examples follow.
Asked: A record lists Cc1cc(C)c(B(c2c(C)cc(C)cc2C)N2c3ccccc3C(c3ccccc3)(c3ccccc3)c3ccccc32)c(C)c1 . Is its emission maximum below 500 nm?
Given back: no

Asked: What about this compound? c1cc2ccc3ccc(-c4ccc(-c5nnc(-c6ccc(-c7nnc(-c8ccc(-c9ccc%10ccc%11cccc%12ccc9c%10c%11%12)s8)o7)cc6)o5)s4)c4ccc(c1)c2c34
Given back: yes

Asked: What about this compound? COc1ccc(C2=[N+]3C(=Nc4c(-c5cc(OC)c(OC)c(OC)c5)cc(-c5ccc(OC)cc5)n4[B-]3(F)F)C(c3cc(OC)c(OC)c(OC)c3)=C2)cc1
Given back: no

Further cases:
Asked: A record lists COc1ccc(/C=C/c2cc(/C=C/c3ccc(OC)cc3)nc(/C=C/c3ccc4cc(OC)ccc4c3)n2)cc1 . Is its emission maximum below 500 nm?
Given back: yes

Asked: What about this compound? Cc1ccc(N(c2ccc(C)cc2)c2ccc(-c3cc4c(cc(-c5ccc(N(c6ccc(C)cc6)c6ccc(C)cc6)cc5)c5nsnc54)c4nsnc34)cc2)cc1
Given back: no

Asked: What about this compound? O=C(c1ccccc1)c1cc2ccc1CCc1ccc(c(-c3ccc(N(c4ccccc4)c4ccccc4)cc3)c1)CC2
Given back: yes

Asked: What about this compound? CC(C)(C)c1ccc(-c2nc3c4ccc(-c5c6ccccc6cc6ccccc56)cc4c4cc(-c5c6ccccc6cc6ccccc56)ccc4c3n2-c2ccc(C(C)(C)C)cc2)cc1
Given back: yes

Asked: What about this compound? COc1ccc(C2=C3C=CC(C)=[N+]3[B-](F)(F)n3c(C)ccc32)cc1
Given back: no

Asked: What about this compound? CN(C)c1ccc(/C=C/C=C2\CC/C(=C\C=C\c3ccc(N(C)C)cc3)C2=O)cc1
Given back: no

Asked: What about this compound? C(#Cc1nc2ccccc2s1)c1ccc(N(c2ccc(C#Cc3nc4ccccc4s3)cc2)c2ccc(C#Cc3nc4ccccc4s3)cc2)cc1
Given back: yes

Asked: What about this compound? CCCCCCCCCCCCN1C(=O)c2cccc3c(N(Cc4ccccn4)Cc4ccccn4)c4ccccc4c(c23)C1=O
Given back: no

Asked: What about this compound? CCOC(=O)CN1C(=O)C2=C(c3ccccc3)N(CC(=O)OCC)C(=O)C2=C1c1ccccc1
Given back: no

----------
# testDetails: solvent given as SMILES
# measurementSetup: in CC(C)=O
metricName: emission maximum (nm)
The figure you give is taken to be in nm; do not add the unit.

Check out these entries, answers already filled in.
Asked: Query (compound): CC(C)(C)c1ccc2c(c1)c1cc(C(C)(C)C)ccc1n2-c1cccc(-c2nc(-c3cccc(-n4c5ccc(C(C)(C)C)cc5c5cc(C(C)(C)C)ccc54)c3)nc(-c3cccc(P(=O)(c4ccccc4)c4ccccc4)c3)n2)c1 ; field requested: emission maximum
Given back: 552.3

Asked: What about this compound? COc1ccc(-c2cc(-c3ccc(OC)cc3)c3c(N)nc(N4CCCC4)c(C#N)c3n2)cc1
Given back: 513

Asked: What about this compound? CCCCCCCCC1(CCCCCCCC)c2cc(-c3ccc(C=C4C(=O)c5ccccc5C4=O)cc3)ccc2-c2ccc(-c3ccc(C=C4C(=O)c5ccccc5C4=O)cc3)cc21
Given back: 568

Asked: What about this compound? Cc1nc2c(c[n+]1C)CN1C(=O)N([C@H]3O[C@@H](CO)[C@H](O)[C@@H]3O)C=CC1=N2
Given back: 418

Asked: What about this compound? CCCCCCCCCCCCCCCCCCN1C(=O)c2cccc3c(OCCN(C)C)ccc(c23)C1=O
Given back: 507

Further cases:
Asked: Query (compound): COC(=O)CN1C(=O)c2cc3ccc(N(C)C)cc3cc2C1=O ; field requested: emission maximum
Given back: 532

Asked: What about this compound? Cc1ccc(Nc2ccc(Nc3ccc(C)cc3)c3c2C(=O)c2ccccc2C3=O)cc1
Given back: 684

Asked: What about this compound? c1ccc(-c2nc(-c3ccc(-c4ccc(-n5c6ccccc6c6ccccc65)cc4)cn3)oc2-c2ccccc2)cc1
Given back: 413

Asked: What about this compound? CCCN(c1ccccc1)c1ccc2c(c1)C(CC)(CC)c1cc(/C=C/c3ccc(/C=C(\C#N)C(=O)O)s3)ccc1-2
Given back: 575

Asked: What about this compound? CN(C)c1ccc(/C=C/c2cc[n+](CCC[n+]3ccc(/C=C/c4ccc(N(C)C)cc4)cc3)cc2)cc1
Given back: 608

----------
# testDetails: solvent given as SMILES
# measurementSetup: in CCCO
Please note: Met applies when emission maximum is 500 nm or greater, and Not met applies otherwise.

Worked examples follow.
Asked: Would you say c1ccc(-c2cc(-c3ccc4ccc5cccc6ccc3c4c56)ccn2)nc1 shows emission maximum at minimum 500 nm?
Given back: Not met

Asked: What about this compound? C#CCN1C(=O)/C(=C/c2cc(OC(C)C)ccc2OC(C)C)N=C1C
Given back: Met

Asked: What about this compound? COC(=O)c1c2ccccc2nc2ccccc12
Given back: Not met

Asked: What about this compound? C#CCNC1=C2C=CC=[N+]2[B-](F)(F)n2cccc21
Given back: Not met

Asked: What about this compound? CCN(CC)c1ccc2cc(-c3ccc(C(F)(F)F)cc3)oc(=O)c2c1
Given back: Not met

Further cases:
Asked: Would you say COc1ccc(/C=C2\OC(=O)c3ccccc32)cc1 shows emission maximum at minimum 500 nm?
Given back: Not met

Asked: What about this compound? N#Cc1coc2ccccc2c1=O
Given back: Not met

Asked: What about this compound? O=C1c2ccccc2-c2ccc(N3CCN(c4ccccc4)CC3)c3cccc1c23
Given back: Met

Asked: What about this compound? Cc1nc2c(c[n+]1C)CN1C(=O)N([C@H]3O[C@@H](CO)[C@H](O)[C@@H]3O)C=CC1=N2
Given back: Not met

Asked: What about this compound? Oc1ccc(/N=C/c2ccccc2Oc2ccccc2)cc1
Given back: Not met

Asked: What about this compound? CN(C)c1ccc(/C=C/C=C/c2nc3ccccc3o2)cc1
Given back: Met

Asked: What about this compound? CN(C)c1ccc(/C=C/C=C2\CC/C(=C\C=C\c3ccc(N(C)C)cc3)C2=O)cc1
Given back: Met

Asked: What about this compound? C(=C\c1cccc2ccccc12)/c1ccc(-c2nnc(-c3ccc(-c4cc5ccccc5s4)cc3)o2)cc1
Given back: Not met

----------
# testDetails: solvent given as SMILES
# measurementSetup: in CCCCCCCCO
metricName: emission maximum (nm)
The figure you give is taken to be in nm; do not add the unit.

Check out these entries, answers already filled in.
Asked: Query (compound): COC(=O)c1ccc(-c2ccc(-c3nnc(-c4ccc(-c5nnc(-c6ccc(-c7ccc(C(=O)OC)cc7)s6)o5)cc4)o3)s2)cc1 ; field requested: emission maximum
Given back: 399

Asked: What about this compound? c1cc2ccc3ccc(-c4ccc(-c5nnc(-c6ccc(-c7nnc(-c8ccc(-c9ccc%10ccc%11cccc%12ccc9c%10c%11%12)s8)o7)cc6)o5)s4)c4ccc(c1)c2c34
Given back: 393

Further cases:
Asked: Query (compound): COc1ccc(C#Cc2c3ccccc3c3n2[B-](F)(F)[N+]2=C(C)C=C(C)C2=C3)cc1 ; field requested: emission maximum
Given back: 629

Asked: What about this compound? Oc1ccc(/N=C/c2ccccc2Oc2ccccc2)cc1
Given back: 420

Asked: What about this compound? O=C1c2ccccc2-c2ccc(N3CCN(c4ccccc4)CC3)c3cccc1c23
Given back: 590

Asked: What about this compound? C(=C\c1cccc2ccccc12)/c1ccc(-c2nnc(-c3ccc(-c4cc5ccccc5s4)cc3)o2)cc1
Given back: 436

Asked: What about this compound? CC1=CC(C)=[N+]2C1=Cc1c3ccccc3c(C#Cc3cccs3)n1[B-]2(F)F
Given back: 636

Asked: What about this compound? CC1=CC(C)=[N+]2C1=Cc1c3ccccc3c(C#Cc3ccc(F)cc3)n1[B-]2(F)F
Given back: 623
